system: A673/TR/shEF; test: cell viability (LOESS-normalised, relative to median of negative controls) (log2 ratio); higher = more viable cells (less compound effect), active = hit call of the paper (over 3 MAD below the median); conditions: 2.5 µM; library screen: screen2; EWS-FLI1 expression: high (no doxycycline); treatment time: 72 h
The whole screen tested about 3,200 compounds, of which about 300 (9.4%) showed activity. Only a selection was taken, and actives are over-represented in it overall.
experimental-endpoint: cell viability (log2)
No unit in the answer, only the number.

Worked cases, cell viability (log2) given:
COc1ccc2c(c[n+](C)c3c4cc5c(cc4ccc23)OCO5)c1OC	0.106
c1ccc2nc(N3CCNCC3)ccc2c1	0.14
CCCN1CCCC2Cc3[nH]ncc3CC21 (centres undefined)	0.231
COc1cc(CC(C)N)c(OC)cc1I (centres undefined)	0.151

Query: Reported cell viability (log2), compound CN1CCc2cc(O)cc3c2C1Cc1ccc(O)c(O)c1-3 (centres undefined) : ____
Response: 0.197

Query: Reported cell viability (log2), compound CN1CC[C@]2(CCN3CCc4c(oc5ccccc45)[C@@H]3C2)N(C)C1=O : ____
Response: 0.114

Query: Reported cell viability (log2), compound O=C1C=CC(=O)c2c(O)cccc21 : ____
Response: 0.273

Query: Reported cell viability (log2), compound CC(=O)OCC1=C(C(=O)O)N2C(=O)[C@@H](NC(=O)CCC[C@@H](N)C(=O)O)[C@H]2SC1 : ____
Response: 0.155

Query: Reported cell viability (log2), compound COc1ccccc1N1CCNCC1 : ____
Response: 0.201

Query: Reported cell viability (log2), compound CCCN(CCC)[C@@H]1CCc2c(F)ccc(O)c2C1 : ____
Response: 0.181

Query: Reported cell viability (log2), compound O=C(O)CCCc1ccc(N(CCCl)CCCl)cc1 : ____
Response: 0.101

Query: Reported cell viability (log2), compound CC(=O)[C@H]1CC[C@H]2[C@@H]3CC[C@H]4C[C@H](O)CC[C@]4(C)[C@H]3C(=O)C[C@]12C : ____
Response: -2.77

Query: Reported cell viability (log2), compound Nc1ncnc2c1ncn2[C@@H]1O[C@H](COP(=O)(O)CP(=O)(O)OP(=O)([O-])[O-])[C@H](O)C1O.[Li+].[Li+] (some centres undefined) : ____
Response: 0.106

Query: Reported cell viability (log2), compound CC[C@@H]1/C=C/C=C/C[C@H](C)[C@@H](O)[C@](C)(O)C(=O)[C@H](C)[C@@H](O)[C@H](C)C(=O)[C@H](C)[C@@H](O)[C@H](C)/C=C/C(=O)O[C@H]2[C@@H](C)[C@@H](CC1)O[C@@]1(CC[C@@H](C)[C@@H](C[C@H](C)O)O1)[C@@H]2C : ____
Response: -0.713

Query: Reported cell viability (log2), compound c1ccc2c(N3CCNCC3)cccc2c1 : ____
Response: -0.803

Query: Reported cell viability (log2), compound C[C@@H](N)Cc1cnc[nH]1 : ____
Response: 0.146

Query: Reported cell viability (log2), compound NC(CF)(Cc1cnc[nH]1)C(=O)O (centres undefined) : ____
Response: 0.162

Query: Reported cell viability (log2), compound N[C@@H](Cc1ccc(N(CCCl)CCCl)cc1)C(=O)O : ____
Response: 0.22

Query: Reported cell viability (log2), compound NC(=O)c1cc([N+](=O)[O-])cc([N+](=O)[O-])c1 : ____
Response: 0.195

Query: Reported cell viability (log2), compound C[C@@H]1O[C@@H](O[C@H]2C[C@@H](O)[C@]3(CO)[C@H]4[C@H](O)C[C@]5(C)[C@@H](C6=CC(=O)OC6)CC[C@]5(O)[C@@H]4CC[C@]3(O)C2)[C@H](O)[C@H](O)[C@H]1O : ____
Response: -4.02
